Provenance of the data: patent EP4745137A1

system: NCI-H1975; test: Tumor cell proliferation inhibition (CellTiter-Meiluncell Luminescent Cell Viability Assay), NCI-H1975; settings: Homo sapiens, NCI-H1975, read-out: inhibitory activity (IC50, nM) against tumor cells proliferation, H1975
For each record, write down the corresponding IC50.

{"columns": ["molecule", "IC50"],
 "data": [
  ["O=C1CCC(N2Cc3cc(CN4CC=C(c5ncnc6sc(-c7ccccc7)cc56)CC4)ccc3C2=O)C(=O)N1 (stereo not shown)", "1 to 5 nM"]
]}

Lab note: each molecule below needs its IC50 filled in.
1. Cn1cc(C2=CCN(Cc3ccc4c(c3)C(=O)N(C3CCC(=O)NC3=O)C4=O)CC2)c2ccc(F)cc21 (stereo not shown)
2. O=C1CCC(N2Cc3cc(CN4CC=C(c5ncnc6sc7c(c56)CCC7)CC4)ccc3C2=O)C(=O)N1 (stereo not shown)
3. O=C1CCC(N2Cc3cc(CN4CCC(c5noc6ccccc56)CC4)ccc3C2=O)C(=O)N1 (stereo not shown)

1: 500 to 1000 nM; 2: 50 to 100 nM; 3: 50 to 100 nM
